System: NCI-H23
protocolNotes: NCI tumour cell line growth inhibition, 48 h
The source made the active and inactive calls. Cut-off read from the data, not from the text of the source: active = GI50 up to about 1.1 µM and inactive = higher.
Assign a class; possible classes are active, inactive

Before answering, review these 8 worked examples.
C/C(=C\CO)CC/C=C(\C)CNc1ccc([N+](=O)[O-])cc1 :: inactive
CCC1(O)CC(O)c2c(O)c3c(c(O)c2C1C(=O)OC)C(=O)c1cccc(O)c1C3=O (stereo not given) :: inactive
CC1(C)CC(=O)C(=CNc2nc(-c3ccccc3)cs2)C(=O)C1 :: inactive
COc1cc(OC)cc(Oc2nc3ccc(C(F)(F)F)cc3nc2-c2ccccc2)c1 :: inactive
CCOC(=O)/C(SC#N)=C(/N)N1CCCC1 :: inactive
C/C(Cl)=N\OC(=O)Nc1ccc(C)cc1 :: inactive
Nc1nc(N)nc(CC(=O)O)n1 :: inactive
COc1ccc(C2=C(N)c3c(Cl)cccc3C2=O)cc1 :: inactive

Input: Per the records of this test, what outcome belongs to `COc1ccc(N(CC(=O)O)S(=O)(=O)c2ccccc2)cc1` ?
Output: inactive

Input: Assay outcome for CC1(C)C=CC(=O)C(O)C(C)(C)C1=O (stereo not given) : what was it?
Output: inactive

Input: # lookup: test call for `Cc1ccnn1CCc1ccc(Cl)cc1Cl`
Output: inactive

Input: I'd appreciate the recorded outcome for O=C1C(CN2CCCCC2)CCCC1CN1CCCCC1 (stereo not given) from this test.
Output: inactive

Input: Query: recorded result category for `O=C(Nc1ccc(S(=O)(=O)Nc2ncccn2)cc1)c1c2ccccc2nc2ccccc12` in this test
Output: inactive

Input: Please share the test call associated with `O=C(N/C(=C/c1ccc(Cl)cc1)c1nc2ccccc2c(=O)n1Nc1ccc([N+](=O)[O-])cc1[N+](=O)[O-])c1ccccc1` .
Output: inactive

Input: Assay result, entry CC1c2cc(c3c(c2O)CN([C@@H](C)C2CCCCC2)CO3)C(C)c2cc(c3c(c2O)CN([C@@H](C)C2CCCCC2)CO3)C(C)c2cc(c3c(c2O)CN([C@@H](C)C2CCCCC2)CO3)C(C)c2cc1c1c(c2O)CN([C@@H](C)C2CCCCC2)CO1 (stereo not given in full) — outcome?
Output: inactive

Input: What is the recorded call for this compound in the test? O=C1C(=C2CCCC2)CCC1CN1CCCCC1 (stereo not given)
Output: inactive

Input: Recorded call for Cc1c2ccncc2c(C)c2c1[nH]c1ccccc12 [ELLIPTECINE] ?
Output: active

Input: Per the records of this test, what outcome belongs to C=CCN1C(=O)CC1N(CC=C)S(=O)(=O)c1ccc(C)cc1 (stereo not given) ?
Output: inactive

Input: I would be grateful if you could indicate the recorded call for C=CC1(C)CCC2=C(CCC3C(C)(C(=O)OC)CCCC23C)C1=O (stereo not given) .
Output: inactive

Input: How was CCOC(=O)C1=[N+]([O-])OC2=C(O)CCCC21 (stereo not given) classified in this test?
Output: inactive

----------
Test system: XF498
protocolNotes: NCI tumour cell line growth inhibition, 48 h
Active and inactive are the calls of the source. Rule as the data show it: active = GI50 up to about 1.1 µM and inactive = higher.
Just give me one of these, please: Yes (active), No (inactive)

COc1ccc(N2C(=O)[C@@H]3[C@H](C2=O)c2[nH]c4ccccc4c2C2CCC(C(C)(C)C)C[C@@H]23)cc1 (stereo not given in full) :: No
CN1C(=S)CSc2ccccc21 :: No
CC(C)[C@H](CCl)NC(=O)c1cccc(C(=O)N[C@H](CCl)C(C)C)n1 (stereo in doubt) :: No
N#C[C-](C#N)[n+]1ccc(Cl)cc1 :: No
CC(=O)O[C@H]1CCC2[C@@H]3CCC4=C(O)C(=O)C(C#N)C[C@]4(C)C3CC[C@@]21C (stereo not given in full) :: No

Input: For `Cc1c(CCO)c(O)n2c(nc3ccccc32)c1C#N` , which call appears in the assay record?
Output: No

Input: Given `COc1cc(CN[C@H]2CCc3cc(OC)c(OC)c(OC)c3-c3ccc(SC)c(=O)cc32)cc(OC)c1` , state the outcome it received in this test.
Output: Yes
